Recorded pIC50 values for a group of compounds are listed next.
- assayed_system: KRAS-G12C/SOS1 (Homo sapiens, UniProt Q07889)
- Sequence (Q07889 564-1049, stated change not applied): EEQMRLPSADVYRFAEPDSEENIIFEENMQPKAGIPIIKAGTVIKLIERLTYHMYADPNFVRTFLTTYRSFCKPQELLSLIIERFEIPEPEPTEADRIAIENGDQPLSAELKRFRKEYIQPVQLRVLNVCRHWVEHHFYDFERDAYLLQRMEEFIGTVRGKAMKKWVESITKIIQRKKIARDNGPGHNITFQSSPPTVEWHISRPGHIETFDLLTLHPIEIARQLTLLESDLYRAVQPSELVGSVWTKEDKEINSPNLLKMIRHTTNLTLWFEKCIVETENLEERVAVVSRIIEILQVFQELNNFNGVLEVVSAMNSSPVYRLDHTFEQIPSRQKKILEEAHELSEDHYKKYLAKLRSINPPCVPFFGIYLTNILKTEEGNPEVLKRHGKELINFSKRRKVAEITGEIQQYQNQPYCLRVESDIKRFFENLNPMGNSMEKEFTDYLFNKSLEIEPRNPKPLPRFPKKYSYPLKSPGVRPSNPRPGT
- assay_overview: biochemical
pIC50: −log10 of the molar value.
quantity_name: pIC50

compound	recorded_measurement
Cc1nc(N[C@H](C)c2cccc(C(F)F)c2F)c2cc(P3(=O)CCOCC3)cc(F)c2n1 [Example 39]	6.99
Cc1nc(N[C@H](C)c2cccc(C(F)(F)F)c2F)c2cc(P3(=O)CCN(S(C)(=O)=O)CC3)ncc2n1 [Example 19]	7.39
CC(=O)N1CCP(=O)(c2cc3c(N[C@H](C)c4cccc(C(F)F)c4F)nc(CF)nc3cc2F)CC1 [Example 32]	7.05
Cc1nc(N[C@H](C)c2cccc(C(F)F)c2F)c2cc(P3(=O)CCN(C4COC4)CC3)ncc2n1 [Example 51]	7.00
COc1cc2nc(C)nc(N[C@H](C)c3cccc(C(F)(F)F)c3F)c2cc1P1(=O)CCOCC1 [Example 68]	7.05
Cc1nc(N[C@H](C)c2cccc3c(F)coc23)c2cc(P3(=O)CCN(S(C)(=O)=O)CC3)ccc2n1 [Example 61]	7.20
Cc1nc(N[C@H](C)c2cccc(C(F)F)c2F)c2cc(P3(=O)CCN(S(=O)(=O)C4CC4)CC3)ncc2n1 [Example 21]	7.24
[2H]C(C)(Nc1nc(C)nc2cnc(P3(=O)CCN(S(C)(=O)=O)CC3)cc12)c1cccc(C(F)(F)F)c1F (stereo not drawn) [Example 25]	7.07
Cc1nc(N[C@H](C)c2cccc(C(F)F)c2F)c2cc(P3(=O)CCN(CC#N)CC3)ccc2n1 [Example 56]	7.06
Cc1nc(N[C@H](C)c2cccc(C(F)F)c2F)c2cc(P3(=O)CCN(CC(=O)N(C)C)CC3)ccc2n1 [Example 57]	6.69
C[C@@H](Nc1ncnc2cnc(P3(=O)CCN(S(C)(=O)=O)CC3)cc12)c1cccc(C(C)(F)F)c1F [Example 64]	7.19
CCP(=O)(CC)c1cc2c(N[C@H](C)c3cccc(C(F)F)c3F)nc(C)nc2cc1OC [Example 34]	6.21
COc1cc2nc(C)nc(N[C@H](C)c3cccc(C(F)F)c3C)c2cc1P1(=O)CCOCC1 [Example 66]	7.10
Cc1nc(N[C@H](C)c2cccc3c2OCC3(F)F)c2cc(P3(=O)CCN(S(C)(=O)=O)CC3)ncc2n1 [Example 22]	7.20
COc1cc2nc(C)nc(N[C@H](C)c3cc(N)cc(C(F)F)c3)c2cc1P1(=O)CCCCC1 [Example 65]	7.25
Cc1nc(N[C@H](C)c2cccc(C(F)F)c2F)c2cc(P3(=O)CCN(S(C)(=O)=O)CC3)ncc2n1 [Example 20]	7.11
COc1cc2nc(C)nc(N[C@H](C)c3cccc(C(F)(F)CO)c3)c2cc1P1(=O)CCOCC1 [Example 70]	7.36
Cc1nc(N[C@H](C)c2cccc(C(F)F)c2F)c2cc(P3(=O)CCOCC3)ccc2n1 [Example 36]	7.03
COc1cc2ncnc(N[C@H](C)c3cccc(C(F)F)c3F)c2cc1P1(=O)CCN(C(C)=O)CC1 [Example 28]	7.30
COc1cc2nc(C)nc(N[C@H](C)c3cccc(C(F)(F)C(C)(C)O)c3)c2cc1P1(=O)CCOCC1 [Example 71]	7.46
CC(=O)N1CCP(=O)(c2ccc3nc(Cl)nc(N[C@H](C)c4cccc(C(F)F)c4F)c3c2)CC1 [Example 33]	7.19
